# assay remarks: background-corrected fluorescence of 3'-dye-labeled ssDNA relative to brightest sequence (3'-GCGCG) (fraction); higher = brighter dye fluorescence (less quenching)
# condition summary: dye: Cy3 (3' terminal)
If the reported background-corrected fluorescence equals or exceeds 0.6, assign t. If not, assign f.

TTTTTTGCTGCTCATCATGCTTTTTTTTTTTTTTTAAGGA [AGGAA] ... t
TTTTTTGATCATGATCATGATTTTTTTTTTTTTTTCGCGC ... t
TTTTTTCATGATGATGAGCATTTTTTTTTTTTTTTGCCCT [TCCCG] ... f
TTTTTTCATGATGCTGATGCTTTTTTTTTTTTTTTGCACA [ACACG] ... f
TTTTTTGATCAGCATCAGCATTTTTTTTTTTTTTTCGTGT [TGTGC] ... f
